The measured values listed here are drawn from patent US10717736B2.

- measured.target: human αVβ5 (Homo sapiens, UniProt P06756+P18084)
- Sequence (P06756 31-992 limits assumed): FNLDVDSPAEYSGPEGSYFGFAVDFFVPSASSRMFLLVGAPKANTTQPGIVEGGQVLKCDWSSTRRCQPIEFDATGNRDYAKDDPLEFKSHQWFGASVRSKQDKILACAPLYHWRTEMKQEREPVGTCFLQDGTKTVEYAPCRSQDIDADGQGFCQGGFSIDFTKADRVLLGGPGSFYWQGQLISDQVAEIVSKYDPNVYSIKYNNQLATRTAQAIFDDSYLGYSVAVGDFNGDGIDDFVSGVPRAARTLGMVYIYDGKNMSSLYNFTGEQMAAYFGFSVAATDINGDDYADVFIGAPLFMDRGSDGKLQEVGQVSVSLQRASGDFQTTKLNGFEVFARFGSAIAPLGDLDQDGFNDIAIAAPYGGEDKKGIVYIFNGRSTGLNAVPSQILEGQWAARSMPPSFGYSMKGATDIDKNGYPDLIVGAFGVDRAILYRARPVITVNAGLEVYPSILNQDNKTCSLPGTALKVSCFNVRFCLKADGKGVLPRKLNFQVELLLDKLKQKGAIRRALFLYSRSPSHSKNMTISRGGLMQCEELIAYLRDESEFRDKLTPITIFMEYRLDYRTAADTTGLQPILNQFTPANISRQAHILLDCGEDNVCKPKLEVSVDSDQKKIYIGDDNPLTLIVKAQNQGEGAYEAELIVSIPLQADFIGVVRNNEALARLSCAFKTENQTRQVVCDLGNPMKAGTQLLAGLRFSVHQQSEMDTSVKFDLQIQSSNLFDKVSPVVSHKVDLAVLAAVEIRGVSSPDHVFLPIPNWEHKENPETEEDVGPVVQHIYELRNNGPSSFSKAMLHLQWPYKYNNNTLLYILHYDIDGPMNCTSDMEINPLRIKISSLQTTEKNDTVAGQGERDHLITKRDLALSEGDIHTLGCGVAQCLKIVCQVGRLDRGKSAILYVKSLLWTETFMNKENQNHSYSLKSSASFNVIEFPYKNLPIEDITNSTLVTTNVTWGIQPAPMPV
- Sequence (P18084 24-719 limits assumed): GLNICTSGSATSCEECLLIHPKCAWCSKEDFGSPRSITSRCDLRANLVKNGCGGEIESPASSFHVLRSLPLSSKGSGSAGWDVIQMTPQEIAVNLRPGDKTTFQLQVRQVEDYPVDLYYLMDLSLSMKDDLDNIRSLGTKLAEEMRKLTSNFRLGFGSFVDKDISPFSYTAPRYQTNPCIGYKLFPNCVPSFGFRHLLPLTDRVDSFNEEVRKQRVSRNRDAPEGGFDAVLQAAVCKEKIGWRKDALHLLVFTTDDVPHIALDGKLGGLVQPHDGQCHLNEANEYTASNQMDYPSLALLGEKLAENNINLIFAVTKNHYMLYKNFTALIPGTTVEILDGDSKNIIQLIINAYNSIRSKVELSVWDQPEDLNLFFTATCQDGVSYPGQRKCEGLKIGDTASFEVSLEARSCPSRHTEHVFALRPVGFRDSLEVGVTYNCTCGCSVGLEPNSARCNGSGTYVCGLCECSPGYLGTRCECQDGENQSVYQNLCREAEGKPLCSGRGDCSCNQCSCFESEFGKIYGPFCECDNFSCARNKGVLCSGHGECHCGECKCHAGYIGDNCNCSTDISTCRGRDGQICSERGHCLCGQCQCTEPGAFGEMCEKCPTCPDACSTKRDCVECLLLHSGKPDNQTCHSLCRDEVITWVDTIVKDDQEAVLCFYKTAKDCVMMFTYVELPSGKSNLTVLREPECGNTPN
- assay.explanation: human αVβ5 HTRF binding assay
Structures can show the parent of a compound that is named as a salt.
assay.metric: IC50 (nM)

>  <compound>
O=C(O)C[C@H](NC(=O)c1cc(CCc2ccc3c(n2)NCCC3)c[nH]1)c1cnc2ccccc2c1

>  <scale.unit>
nM

>  <IC50>
1.73

$$$$
>  <compound>
Cc1cc(C)c(S(=O)(=O)N[C@@H](CNC(=O)c2cc(CCC3CCc4cccnc4N3)c[nH]2)C(=O)O)c(C)c1 (mixture of isomers)

>  <scale.unit>
nM

>  <IC50>
0.23

$$$$
>  <compound>
O=C(N[C@@H](CNC(=O)c1cc(CCc2ccc3c(n2)NCCC3)c[nH]1)C(=O)O)OC1CCCC1

>  <scale.unit>
nM

>  <IC50>
0.09

$$$$
>  <compound>
O=C(O)C[C@H](NC(=O)c1cc(CCc2ccc3c(n2)NCCC3)c[nH]1)c1ccc2c(c1)OCC2

>  <scale.unit>
nM

>  <IC50>
0.85

$$$$
>  <compound>
COc1ncc(C(CC(=O)O)NC(=O)c2cc(CCc3ccc4c(n3)NCCC4)c[nH]2)cn1 (stereo not drawn)

>  <scale.unit>
nM

>  <IC50>
5.68

$$$$

1: COc1ccc([C@H](CC(=O)O)NC(=O)c2cc(CCc3ccc4c(n3)NCCC4)c(C)[nH]2)cn1
2: O=C(N[C@@H](CNC(=O)c1cc(CCc2ccc3c(n2)NCCC3)c[nH]1)C(=O)O)OCc1ccccc1 [Example 25, TFA]
3: Cc1ncc(C(CC(=O)O)NC(=O)c2cc(CCc3ccc4c(n3)NCCC4)c[nH]2)cn1 (stereo not drawn)
4: Cc1cc(C)c(S(=O)(=O)N[C@@H](CNC(=O)c2cc(CCc3ccc4c(n3)NCCC4)c[nH]2)C(=O)O)c(C)c1
*Q* Please put the entries in order of rising IC50. Form field (ranking): labels in requested order.
*A* 2, 4, 3, 1
(2: 0.16 nM, 4: 0.54 nM, 3: 3.84 nM, 1: 10.4 nM)
